Literature survey of pKi (system: Carbonic anhydrase 4 (Homo sapiens, UniProt P22748)).
Field pKi (float): negative decimal logarithm of the concentration in molar.

compound	pKi
NS(=O)(=O)c1ccc(N2C(=S)NC3C(O)C(C(O)CO)OC32)cc1 (centres unmarked)	6.46
NS(=O)(=O)c1ccc(N2CC[C@H](NC(=S)Nc3ccc(F)cc3)C2)nc1	5.57
NS(=O)(=O)c1cccc(N2C(=S)NC3C(O)C(C(O)CO)OC32)c1 (centres unmarked)	4.56
Cc1ccc(NC(=O)NCc2cn(CCCCS(N)(=O)=O)nn2)cc1	5.24

Proceeding to the next compound to report its pKi.
Look up and state reported pKi for NS(=O)(=O)c1ccc(NC(=O)c2ccc3cccc(OCc4ccc([N+](=O)[O-])cc4)c3n2)cc1
6.16
